- System: A498 renal
- experiment.summary: NCI-60 one-dose screen, 48 h
- condition.context: 10 µM unless noted
This is part of a sample that, as a whole, favours compounds with a hit. Of some 83,000 tested, about 20% had one in any assay. Activity calls are given as the source filed them. Rule for the calls: active = growth percent below 10; inactive = the rest.
Classes used: active, inactive

[
  {
    "compound": "COc1ccc(C2CC(c3cccc(Nc4ccnc5cc(Cl)ccc45)c3)=NN2C=O)cc1 (stereo not given)",
    "label": "active"
  },
  {
    "compound": "O=C(c1ccccc1)c1ccccc1Cl",
    "label": "inactive"
  },
  {
    "compound": "CCCCn1c(Cc2ccc(Cl)cc2)nc2cc(OC)c(OC)cc2c1=O",
    "label": "inactive"
  },
  {
    "compound": "CCOC(=O)C1=C(COCCN)NC(C)=C(C(=O)OC)C1c1ccccc1Cl (stereo not given)",
    "label": "inactive"
  },
  {
    "compound": "c1cnc2ccc3ncccc3c2c1",
    "label": "inactive"
  }
]
